Biological target: PKB (Homo sapiens)
Construct: His; HA; made in house
Assay: PKB in vitro kinase activity assay (soluble His-HA-PKB / SPA bead screening)
Type: biochemical
Conditions: 1 μM compound concentration, Assay 2
Where no end group is shown, it is not given here. Side-chain parts run from the residue outwards. [ ]: non-standard residue; d: D form. The star is where a group is joined. X1 = 5‑aminoethylsulfonamide isoquinoline, O=S(=O)(NCCN*)c1cccc2cnccc12; hLeu = CC(C)CC[C@H](N)C(=O)O; Nle = CCCC[C@H](N)C(=O)O; Orn = NCCC[C@H](N)C(=O)O; Dab = NCC[C@H](N)C(=O)O; Nva = CCC[C@H](N)C(=O)O; Abu = CC[C@H](N)C(=O)O; Dap = NC[C@H](N)C(=O)O; βAla = NCCC(=O)O
PKB-kinase (spa) Assay 2, % inhibition of kinase activity below 40% gives Criterion not met; PKB-kinase (spa) Assay 2, % inhibition of kinase activity at or above it gives Criterion met.

[[record]]
substance = "60020-47: Arg-Pro-Arg-Orn-Glu(Gly-5-aminoethylsulfonamide isoquinoline)-Nva-Phe (RPR[Orn]E([Gly-X1])[Nva]F)"
class_assignment = "Criterion not met"

[[record]]
substance = "60020-23: Arg-Pro-Arg-Abu-Glu(5-aminoethylsulfonamide isoquinoline)-Nva-Phe (RPR[Abu]E(X1)[Nva]F)"
class_assignment = "Criterion not met"

[[record]]
substance = "60020-27: Arg-Pro-Arg-Nle-Glu(5-aminoethylsulfonamide isoquinoline)-Orn-Phe (RPR[Nle]E(X1)[Orn]F)"
class_assignment = "Criterion not met"

[[record]]
substance = "60020-19: Arg-Pro-Arg-Abu-Glu(5-aminoethylsulfonamide isoquinoline)-Orn-Phe (RPR[Abu]E(X1)[Orn]F)"
class_assignment = "Criterion not met"

[[record]]
substance = "60020-73: Arg-Pro-Arg-Orn-Glu(bAla-5-aminoethylsulfonamide isoquinoline)-Dab-Phe (RPR[Orn]E([βAla-X1])[Dab]F)"
class_assignment = "Criterion not met"

[[record]]
substance = "60020-4: Arg-Pro-Arg-Dap-Glu(5-aminoethylsulfonamide isoquinoline)-Orn-Hol (RPR[Dap]E(X1)[Orn][hLeu])"
class_assignment = "Criterion met"

[[record]]
substance = "60020-87: Arg-Pro-Arg-Abu-Glu(bAla-5-aminoethylsulfonamide isoquinoline)-Nva-Phe (RPR[Abu]E([βAla-X1])[Nva]F)"
class_assignment = "Criterion not met"

[[record]]
substance = "60020-3: Arg-Pro-Arg-Dap-Glu(5-aminoethylsulfonamide isoquinoline)-Orn-Phe (RPR[Dap]E(X1)[Orn]F)"
class_assignment = "Criterion met"

[[record]]
substance = "60020-11: Arg-Pro-Arg-Orn-Glu(5-aminoethylsulfonamide isoquinoline)-Orn-Phe (RPR[Orn]E(X1)[Orn]F)"
class_assignment = "Criterion met"

[[record]]
substance = "60020-46: Arg-Pro-Arg-Orn-Glu(Gly-5-aminoethylsulfonamide isoquinoline)-Ala-Hol (RPR[Orn]E([Gly-X1])A[hLeu])"
class_assignment = "Criterion met"


###

Recorded IC50 by entry
Molecular target: PKB (Homo sapiens, UniProt P31749)
Construct: His; HA; made in house
Sequence (P31749 whole entry, species assumed): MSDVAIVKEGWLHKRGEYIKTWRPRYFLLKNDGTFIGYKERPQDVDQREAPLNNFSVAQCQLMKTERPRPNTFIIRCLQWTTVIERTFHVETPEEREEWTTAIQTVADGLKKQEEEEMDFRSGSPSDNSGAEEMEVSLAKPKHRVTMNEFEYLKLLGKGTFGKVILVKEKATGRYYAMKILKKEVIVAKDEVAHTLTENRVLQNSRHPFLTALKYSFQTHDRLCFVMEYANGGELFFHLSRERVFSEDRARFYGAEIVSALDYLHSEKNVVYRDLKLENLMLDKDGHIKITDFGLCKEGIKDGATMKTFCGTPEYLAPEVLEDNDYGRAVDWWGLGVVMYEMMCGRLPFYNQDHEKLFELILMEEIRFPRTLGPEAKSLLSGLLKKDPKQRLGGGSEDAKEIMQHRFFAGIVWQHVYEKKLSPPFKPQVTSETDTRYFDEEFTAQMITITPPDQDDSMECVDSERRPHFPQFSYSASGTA
Assay: PKB in vitro kinase activity assay (soluble His-HA-PKB / SPA bead screening)
Type: biochemical
Settings: chimeric PTR compounds (peptide conjugated to isoquinoline small molecule); read-out: PKB IC50
*1 amine or outer side, *2 acyl side, *3 side chain or, on linkers, in order; H or OH if unused. Where a SMILES comes first, the peptide text is derived from it. Side-chain parts run from the residue outwards. [ ]: non-standard residue; d: D form. The star is where a group is joined. Isoquinoline5sulfonyl = O=S(=O)(c1cccc2cnccc12)*; Ethylenediamine = C(CN[*:2])N[*:1]; Nle = CCCC[C@H](N)C(=O)O; Abu = CC[C@H](N)C(=O)O; Ava = NCCCCC(=O)O; βAla = NCCC(=O)O
measured quantity: IC50 (µM)

[[record]]
compound = "CCCC[C@H](NC(=O)[C@H](CO)NC(=O)[C@H](CCC(=O)NCCC(=O)NCCNS(=O)(=O)c1cccc2cnccc12)NC(=O)[C@H](CCCC)NC(=O)[C@H](CCCNC(=N)N)NC(=O)[C@@H]1CCCN1C(=O)[C@@H](N)CCCNC(=N)N)C(N)=O [compound 6096] (H-RPR[Nle]E([βAla-Ethylenediamine-Isoquinoline5sulfonyl])S[Nle]-NH2; N-terminus assumed)"
assay_value = 0.93

[[record]]
compound = "C[C@@H](O)[C@H](NC(=O)[C@H](CCCNC(=N)N)NC(=O)[C@@H]1CCCN1C(=O)[C@@H](N)CCCNC(=N)N)C(=O)N[C@@H](CCC(=O)NCCCCC(=O)NCCNS(=O)(=O)c1cccc2cnccc12)C(=O)N[C@@H](CO)C(=O)N[C@@H](Cc1ccccc1)C(N)=O [compound 6090] (H-RPRTE([Ava-Ethylenediamine-Isoquinoline5sulfonyl])SF-NH2; N-terminus assumed)"
assay_value = 5.6

[[record]]
compound = "CCCC[C@H](NC(=O)[C@H](CCCNC(=N)N)NC(=O)[C@@H]1CCCN1C(=O)[C@@H](N)CCCNC(=N)N)C(=O)N[C@@H](CCC(=O)NCCC(=O)NCCNS(=O)(=O)c1cccc2cnccc12)C(=O)N[C@@H](CC)C(=O)N[C@@H](Cc1ccccc1)C(N)=O [compound 6138] (H-RPR[Nle]E([βAla-Ethylenediamine-Isoquinoline5sulfonyl])[Abu]F-NH2; N-terminus assumed)"
assay_value = 2


###

compounds and their reported inhibition at 1 µM
Target: PKB (Homo sapiens)
Construct: His; HA; made in house
Test: PKB in vitro kinase activity assay (soluble His-HA-PKB / SPA bead screening)
Type: biochemical
Details: 1 μM compound concentration, Assay 2; read-out: PKB-kinase (spa) Assay 2, % inhibition of kinase activity
*1 amine or outer side, *2 acyl side, *3 side chain or, on linkers, in order; H or OH if unused. Where a SMILES comes first, the peptide text is derived from it. Side-chain parts run from the residue outwards. [ ]: non-standard residue; d: D form. The star is where a group is joined. Isoquinoline5sulfonyl = O=S(=O)(c1cccc2cnccc12)*; Ethylenediamine = C(CN[*:2])N[*:1]; hLeu = CC(C)CC[C@H](N)C(=O)O; Nle = CCCC[C@H](N)C(=O)O; Orn = NCCC[C@H](N)C(=O)O; Dab = NCC[C@H](N)C(=O)O
measured quantity: inhibition at 1 µM (%)

[[record]]
compound = "CCCC[C@H](NC(=O)[C@H](CCCNC(=N)N)NC(=O)[C@@H]1CCCN1C(=O)[C@@H](N)CCCNC(=N)N)C(=O)N[C@@H](CCC(=O)NCC(=O)NCCNS(=O)(=O)c1cccc2cnccc12)C(=O)N[C@@H](CCN)C(=O)N[C@@H](CCC(C)C)C(N)=O [60020-58] (H-RPR[Nle]E([Gly-Ethylenediamine-Isoquinoline5sulfonyl])[Dab][hLeu]-NH2)"
assay_value = 93

[[record]]
compound = "CC(C)CC[C@H](NC(=O)[C@H](CCN)NC(=O)[C@H](CCC(=O)NCC(=O)NCCNS(=O)(=O)c1cccc2cnccc12)NC(=O)[C@H](CCCN)NC(=O)[C@H](CCCNC(=N)N)NC(=O)[C@@H]1CCCN1C(=O)[C@@H](N)CCCNC(=N)N)C(N)=O [60020-42] (H-RPR[Orn]E([Gly-Ethylenediamine-Isoquinoline5sulfonyl])[Dab][hLeu]-NH2)"
assay_value = 86

[[record]]
compound = "CCCC[C@H](NC(=O)[C@H](CCCNC(=N)N)NC(=O)[C@@H]1CCCN1C(=O)[C@@H](N)CCCNC(=N)N)C(=O)N[C@@H](CCC(=O)NCC(=O)NCCNS(=O)(=O)c1cccc2cnccc12)C(=O)N[C@@H](CCN)C(=O)N[C@@H](Cc1ccccc1)C(N)=O [60020-57] (H-RPR[Nle]E([Gly-Ethylenediamine-Isoquinoline5sulfonyl])[Dab]F-NH2)"
assay_value = 93


###

Target: PKB (Homo sapiens, UniProt P31749)
Construct: His; HA; made in house
Assay: PKB in vitro kinase activity assay (soluble His-HA-PKB / SPA bead screening)
Format: biochemical
Conditions: 1 μM compound concentration, Assay 2
Where no end group is shown, it is not given here. Side-chain parts run from the residue outwards. [ ]: non-standard residue; d: D form. The star is where a group is joined. X1 = 5‑aminoethylsulfonamide isoquinoline, O=S(=O)(NCCN*)c1cccc2cnccc12; hLeu = CC(C)CC[C@H](N)C(=O)O; Orn = NCCC[C@H](N)C(=O)O; Dab = NCC[C@H](N)C(=O)O; Nva = CCC[C@H](N)C(=O)O; Abu = CC[C@H](N)C(=O)O; βAla = NCCC(=O)O
measured quantity: PKB-kinase (spa) Assay 2, % inhibition of kinase activity (%)

[[record]]
substance = "60020-44: Arg-Pro-Arg-Orn-Glu(Gly-5-aminoethylsulfonamide isoquinoline)-Orn-Hol (RPR[Orn]E([Gly-X1])[Orn][hLeu])"
assay_value = 67

[[record]]
substance = "60020-81: Arg-Pro-Arg-Abu-Glu(bAla-5-aminoethylsulfonamide isoquinoline)-Dab-Phe (RPR[Abu]E([βAla-X1])[Dab]F)"
assay_value = 42

[[record]]
substance = "60020-24: Arg-Pro-Arg-Abu-Glu(5-aminoethylsulfonamide isoquinoline)-Nva-Hol (RPR[Abu]E(X1)[Nva][hLeu])"
assay_value = "−12"

